- TGT: TMV RNA
- ASSAY: ITC binding of NNM to TMV RNA
- MEASUREMENT SETUP: 20°C
MEASURED PARAMETER: Kd (µM)

[[record]]
compound = "CNCC(=O)N[C@@H](CO)C(=O)N[C@H]1[C@H](O)[C@@H](O)[C@H](n2ccc(N)nc2=O)O[C@@H]1C(N)=O [NNM, Ningnanmycin]"
tgt = "TMV RNA"
display_unit = "µM"
value_measured = 16.5


---

- TGT: TMV particles
- ASSAY: MST binding of NNM to TMV particles
- Set-up: species or system Tobacco mosaic virus
- MEASUREMENT SETUP: from 20 to 30°C
pKd: −log10 of the molar value.
MEASURED PARAMETER: pKd

[[record]]
compound = "CNCC(=O)N[C@@H](CO)C(=O)N[C@H]1[C@H](O)[C@@H](O)[C@H](n2ccc(N)nc2=O)O[C@@H]1C(N)=O [NNM, Ningnanmycin]"
value_measured = "4.28 to 4.59"


---

- TGT: TMV particles
- ASSAY: MST binding of NNM to TMV particles
- Parameters: species or system Tobacco mosaic virus
- MEASUREMENT SETUP: 25°C
MEASURED PARAMETER: Kd (µM)

[[record]]
chemical_string = "CNCC(=O)N[C@@H](CO)C(=O)N[C@H]1[C@H](O)[C@@H](O)[C@H](n2ccc(N)nc2=O)O[C@@H]1C(N)=O"
tgt = "TMV particles"
display_unit = "µM"
value_measured = 31


---

- TGT: TMV particles
- ASSAY: MST binding of NNM to TMV particles
- Parameters: species or system Tobacco mosaic virus
- MEASUREMENT SETUP: 30°C
pKd: −log10 of the molar value.
MEASURED PARAMETER: pKd

[[record]]
chemical_string = "CNCC(=O)N[C@@H](CO)C(=O)N[C@H]1[C@H](O)[C@@H](O)[C@H](n2ccc(N)nc2=O)O[C@@H]1C(N)=O"
value_measured = 4.28


---

- TGT: TMV CP discs (Tobacco mosaic virus)
- Construct: 6×His (N, cleaved yes); made in house; host or cells: Escherichia coli BL21 (DE3)-plysS, pET28a
- Sequence (P69687 whole entry): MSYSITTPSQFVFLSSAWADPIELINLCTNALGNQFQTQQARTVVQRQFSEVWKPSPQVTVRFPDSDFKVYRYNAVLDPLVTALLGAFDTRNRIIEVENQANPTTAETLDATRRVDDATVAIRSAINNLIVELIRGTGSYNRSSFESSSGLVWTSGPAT
- ASSAY: biochemical
- Format: binding
- MEASUREMENT SETUP: Kd to CP discs
pKd: −log10 of the molar value.
MEASURED PARAMETER: pKd

[[record]]
molecule = "CNCC(=O)N[C@@H](CO)C(=O)N[C@H]1[C@H](O)[C@@H](O)[C@H](n2ccc(N)nc2=O)O[C@@H]1C(N)=O [NNM, Ningnanmycin]"
value_measured = "5.40 to 5.96"

